Consider the following compounds and their measured TGI readings.
system: HCT-15 colon; assay: NCI tumour cell line growth inhibition, 48 h

# compound, TGI
data = [
    ("CCn1c(-c2nonc2N)nc2cncc(C(=O)NCCNC)c21", "> 25 µM"),
    ("Cc1ccc([N+](=O)[O-])cc1S(=O)(=O)Nc1ccc(C2=NN(C(=O)c3ccccc3)C(c3cccs3)C2)cc1 (stereo not drawn)", "> 100 µM"),
    ("CCOC(=O)c1c(Cl)c2c(n1Cc1cccc(OC)c1)-c1oncc1CC2", "> 100 µM"),
]

====

test system: NCI-H226 lung; assay: NCI tumour cell line growth inhibition, 48 h

# compound, target-of-assay, TGI
records = [
    ("S=C(c1ccc2c(c1)OCO2)N1CCN(c2cccc(Cl)c2)CC1", "NCI-H226 lung", "> 100 µM"),
    ("C/C=N\\n1c(C)c(C#N)c(C#N)c1N", "NCI-H226 lung", "> 100 µM"),
    ("Cc1cn([C@H]2C[C@@H]3[C@@H](COC(CCl)N3O)O2)c(=O)[nH]c1=O (some centres not stated)", "NCI-H226 lung", "> 100 µM"),
    ("O=Nc1sc(=N\\O)/c(=N/O)sc1NO", "NCI-H226 lung", "> 100 µM"),
    ("COc1c(O)c(O)c2c(c1O)C(=O)c1cc(C)cc(O)c1C2=O", "NCI-H226 lung", "> 93.5 µM"),
    ("CC(C)(C)C1(O)C=C(O)C(=O)N1NC(=O)c1ccccc1Nc1ccccc1 (configuration not stated)", "NCI-H226 lung", "> 100 µM"),
    ("O=NN/C(=C1\\Nc2ccc([N+](=O)[O-])cc2NC1=O)C(O)c1ccc([N+](=O)[O-])cc1 (configuration not stated)", "NCI-H226 lung", "> 100 µM"),
    ("Cc1cc(=O)oc2c(OS(C)(=O)=O)c(OS(C)(=O)=O)ccc12", "NCI-H226 lung", "> 100 µM"),
    ("C=C(C)[C@H]1C[C@@H]2O[C@@](O)(/C(C)=C\\C(=O)/C=C(/C)C[C@H]3OC(=O)[C@@]24O[C@H]34)[C@@H]1O", "NCI-H226 lung", "> 100 µM"),
    ("COc1ccc(NC(=O)CC(=O)N2N=C(N(CCC#N)c3cccc(C)c3)CC2c2ccccc2)cc1 (configuration not stated)", "NCI-H226 lung", "> 100 µM"),
    ("N#C/C(C(=S)Nc1ccccc1)=C(/N)N1CCCC1", "NCI-H226 lung", "> 100 µM"),
    ("Cn1ccnc1C(=O)/C=C/c1ccc(CC(=O)Nc2ccc(F)cc2)cc1", "NCI-H226 lung", "> 25 µM"),
    ("O=C1C(=c2cc3c(c4ccccc24)=NC24CCCCC2C(c2ccccc2)C=C(c2ccccc2)N34)C(=O)c2ccccc21 (configuration not stated)", "NCI-H226 lung", "> 100 µM"),
    ("CN(C)C1=NC2=S(SC(Nc3ccccc3)=N2)S1 (configuration not stated)", "NCI-H226 lung", "> 100 µM"),
    ("OCC1OC2OC3C(CO)OC(OC4C(CO)OC(OC5C(CO)OC(OC6C(CO)OC(OC7C(CO)OC(OC1C(O)C2O)C(O)C7O)C(O)C6O)C(O)C5O)C(O)C4O)C(O)C3O (configuration not stated) (tested in a mixture with another compound)", "NCI-H226 lung", "> 100 µM"),
    ("COc1ccc(C(=O)C(C(=O)C(=O)NC2C3CC4CC(C3)CC2C4)c2ccc(OC)cc2)cc1 (configuration not stated)", "NCI-H226 lung", "> 100 µM"),
    ("CCn1c(-c2nonc2N)nc2cncc(C(=O)NCCNC)c21", "NCI-H226 lung", "> 25 µM"),
]

====

system: SN12C renal; test: NCI tumour cell line growth inhibition, 48 h
property-label: TGI

# compound, endpoint-result
measured = [
    ("COc1ccccc1/C=C/c1c(N)ncnc1Nc1cccc(Cl)c1", "30.9 µM"),
    ("COC(=O)c1ccc(COC(=O)N2C=CCC2C(=O)O)cc1 (stereo not drawn)", "> 100 µM"),
    ("Cc1c(-c2nnc(-c3ccc(F)cc3)o2)nnn1-c1ccnc2c(C(F)(F)F)cccc12", "> 100 µM"),
]

====

Consider the following compounds and their measured TGI readings.
test system: DU-145 prostate; experiment: NCI tumour cell line growth inhibition, 48 h
Where a SMILES comes first, the peptide text is derived from it.
property-label: TGI

# compound, endpoint-result
rows = [
    ("COC(=O)Cc1c(/C=C/C(C)(C)n2cnc(CCN3C(=O)CCC3=O)c2)[nH]c2ccccc12", "> 100 µM"),
    ("CC(=O)OC1Oc2cc(C)c(C)cc2-c2oc(=O)c(-c3ccc(F)cc3)cc21 (centres undefined)", "77.7 µM"),
    ("C=C1CC2CC(=O)C(O)C(C1)C2 (centres undefined)", "> 100 µM"),
    ("CNC(=O)CNC(=O)C(NC(=O)CNC(=O)C1CCCN1C(=O)C(C)NC(=O)C(NC(C)=O)C(C)C)C(C)C (centres undefined) (Ac-VAPGVG-NHMe; configuration not given here)", "> 100 µM"),
    ("N#CCCSC(=S)C1CCCC1=N (centres undefined)", "> 100 µM"),
    ("CC(C)(C)OC(=O)CC(NC(=O)OC(C)(C)C)C(=O)NC(C(=O)O)C(O)c1ccccc1 (centres undefined)", "> 100 µM"),
    ("O=[N+]([O-])C(=C(N1CCCCC1)N1CCCCC1)/C(Cl)=C(\\Cl)[N+](=O)[O-]", "7.72 µM"),
    ("CCCNC(=O)Cn1c(C)cc2ccccc21", "> 100 µM"),
    ("Cc1ccc2[nH]c3c(c2c1)CCC/C3=N/N=C(N)N", "3.34 µM"),
]

====

tested on: KM12 colon; experiment: NCI tumour cell line growth inhibition, 48 h
property-label: TGI

# compound, endpoint-result
rows = [
    ("CC(=O)O[C@H]1CC[C@@]2(C)C(=C[C@H](c3ccc(O)cc3)[C@H]3[C@@H]4CC[C@H](OC(C)=O)[C@@]4(C)CC[C@@H]32)C1", "31 µM"),
    ("COc1ccc(NC(=O)CC(=O)N2N=C(N(CCC#N)c3cccc(C)c3)CC2c2ccccc2)cc1 (stereo unspecified)", "> 100 µM"),
    ("COc1cc(C2CC(c3ccccc3)=NN2C(C)=O)cc(OC)c1OC (stereo unspecified)", "> 100 µM"),
    ("COC(=O)C(Cc1ccccc1)NC(=O)Cn1ccnc1[N+](=O)[O-] (stereo unspecified)", "> 100 µM"),
    ("O=C1/C(=C/c2ccc(Cl)cc2)N=C(c2ccccc2)N1c1nc2c(Cl)cc(Cl)cc2s1", "> 100 µM"),
    ("C(=NCCCN1CCN(CCCN=Cc2cccc3ccccc23)CC1)c1cccc2ccccc12", "> 100 µM"),
    ("CC1=CC(=O)[C@@H](O)[C@]2(C)[C@H]3[C@@]4(O)OC[C@@]35[C@@H](C[C@@H]12)OC(=O)C(OC(=O)CC1=CCCC1)[C@H]5[C@@H](C)[C@H]4O (stereo partly specified)", "0.166 µM"),
    ("CCC(CCN)(CCN)[N+](=O)[O-]", "> 100 µM"),
    ("CSc1ccc(-c2cc(-c3nc4ccccc4[nH]3)nc(N)c2C#N)cc1", "71.2 µM"),
    ("Cc1ccc2[nH]c3c(c2c1)CCC/C3=N/N=C(N)N", "3.16 µM"),
    ("CCOC(=O)C(C(=O)OCC)=C1N[C@H](C(=O)OCC)CS1", "> 100 µM"),
    ("COc1ccc2oc(=O)c(-c3nc4ccccc4o3)cc2c1", "> 100 µM"),
    ("C/C(=C\\CCc1ccsc1)CC/C=C(\\C)CCCN1CCC(CO)CC1", "3.47 µM"),
    ("CCCCCCCCCCCCCCCCCC(=O)OCC(C[As](=O)(O)O)OC(=O)CCCCCCCCCCCCCCCCC (stereo unspecified)", "> 100 µM"),
    ("CCOC(=O)N1CCN(c2nc(C)n(-c3ccccc3)c(=S)c2C#N)CC1", "> 100 µM"),
    ("O=C(Nc1cccc([N+](=O)[O-])c1)C(=O)C(C(=O)c1ccccc1F)C1OC(=O)C2C=CC=CC21 (stereo unspecified)", "> 100 µM"),
]

====

test system: SK-MEL-5 melanoma; experiment: NCI tumour cell line growth inhibition, 48 h
property-label: TGI

# compound, property-label, endpoint-result
records = [
    ("C/C=N\\n1c(C)c(C#N)c(C#N)c1N", "TGI", "> 100 µM"),
    ("C=CC[C@@H]1/C=C(\\C)C[C@H](C)C[C@H](OC)[C@H]2O[C@@](O)(C(=O)C(=O)N3CCCC[C@H]3C(=O)O[C@H](/C(C)=C/C3CC[C@@H](O)[C@H](OC)C3)[C@H](C)[C@@H](O)CC1=O)[C@H](C)C[C@@H]2OC (stereo partly specified)", "TGI", "26.6 µM"),
    ("CC(=O)OC1CC2C(C)(C)C(=O)C=C[C@]2(C)C2CCC3(C)C(c4ccoc4)[C@@H](O)[C@H]4O[C@]43[C@]12C (stereo partly specified)", "TGI", "34.2 µM"),
    ("COC1OC(COS(=O)(=O)c2ccc(C)cc2)C(O)C(OS(=O)(=O)c2ccc(C)cc2)C1OS(=O)(=O)c1ccc(C)cc1 (stereo unspecified)", "TGI", "> 100 µM"),
    ("CN(C)[C@H]1CC[C@H]2[C@@H]3CCC4C[C@@H](NC(=O)NC(Cc5ccccc5)c5nccs5)CC[C@]4(C)[C@H]3CC[C@]12C (stereo partly specified)", "TGI", "3.38 µM"),
    ("NC(=NCCN1CCCCCCC1)NO", "TGI", "> 100 µM"),
    ("CC(=O)N1CC(=O)NC1=S", "TGI", "> 100 µM"),
    ("CC1=CC(=O)c2c(C=O)c(O)c(O)c(C(C)C)c2C1=O", "TGI", "65 µM"),
    ("CC(C)(C)OC(=O)CC(NC(=O)OC(C)(C)C)C(=O)NC(C(=O)O)C(O)c1ccccc1 (stereo unspecified)", "TGI", "> 100 µM"),
    ("C=C1CC2CC(=O)C(O)C(C1)C2 (stereo unspecified)", "TGI", "> 100 µM"),
    ("O=C1/C(=C/c2ccccc2F)CN(C(=O)C(Cl)Cl)C/C1=C\\c1ccccc1F", "TGI", "1.64 µM"),
    ("Cc1ccc2ccc3ccc(C)nc3c2n1", "TGI", "> 100 µM"),
    ("c1ccc(CCN2CCOCC2)nc1", "TGI", "> 100 µM"),
    ("Cc1ccc2c(c1)C(C1Cc3cccc(C)c3C1=O)OC2=O (stereo unspecified)", "TGI", "> 100 µM"),
    ("CCCC(=O)Nc1ccc2c(c1)CN1C(=O)c3ccccc3C1=N2", "TGI", "> 100 µM"),
    ("COC(=O)CCc1ccc2c(c1)CC1(Cc3ccccc3C1)C2", "TGI", "> 100 µM"),
]
